FYI, the data here is from ChEMBL document CHEMBL1201862.

# Test system: MDA-N
# ASSAY SUMMARY: NCI tumour cell line growth inhibition, 48 h
Activity calls are given as the source filed them. No stated cut-off is given here; in the data, active = GI50 up to about 1.1 µM and inactive = higher.
Give one outcome, nothing more. List: 1 = active, 0 = inactive

Input: What call does the record list for N#CC1=C(N2CCCC2)NC(=O)CC1=O ?
Output: 0

Input: What call does the record list for C[N+](C)([O-])CCC=C1c2ccccc2CCc2ccccc21 ?
Output: 0

Input: What call does the record list for Cc1ccc(/C=N/n2c(Cc3ccccc3)n[nH]c2=O)cc1 ?
Output: 0

Input: What call does the record list for CC[C@@H]1ON(C)[C@H]2CN(C)C(=O)[C@@H]12 ?
Output: 0

Input: What call does the record list for C=CCOc1ccc(C2c3c(n[nH]c3O)CC(C)(O)C2C(=O)OC)cc1OC (configuration not stated) ?
Output: 0

Input: What call does the record list for Cc1cc(Cl)ccc1Nc1sc(C(=O)c2cc3cc(Cl)ccc3o2)c(N)c1C#N ?
Output: 0

Input: What call does the record list for Nc1nc(Cl)c(N)c(NCC2(CO)CCCC2)n1 ?
Output: 0

Input: What call does the record list for COc1ccc(-n2nnc(C(N)=O)c2O)cc1 ?
Output: 0

Input: What call does the record list for CCOC(=O)NN(C(=O)OCC)c1c(C)cc(C)cc1C ?
Output: 0

Input: What call does the record list for C/C(=N/O)c1cccc(Nc2nc3ccccc3c3[nH]c4ccccc4c23)c1 ?
Output: 0

Input: What call does the record list for C/C(=C\CNc1nc(Cl)nc2[nH]cnc12)CO ?
Output: 0

Input: What call does the record list for CC(=O)O[C@H]1C(=O)[C@@]2(C)[C@H]([C@H](OC(=O)c3ccccc3)[C@]3(O)C[C@H](OC(=O)[C@H](O)[C@@H](NC(=O)c4cccc(N=[N+]=[N-])c4)c4ccccc4)C(C)=C1C3(C)C)[C@]1(OC(C)=O)CO[C@@H]1C[C@@H]2O ?
Output: 1
